Target: T1, AAV5 (adeno-associated virus 5)
T1 construct: also called adeno-associated virus serotype 5
Assay: SPR, AAV amine-coupled to CM5 chip;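 note: nanobodies flowed as analyte at seven concentrations spanning 1–100 nM over immobilized AAV (500–800 RU), kinetic constants derived by fitting the binding curves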
MEASUREMENT NAME: koff
The reply should read as a number followed by its unit.

What value of measured koff is listed for A4-075 (VHH) VHH: VQLQESGGGLVQSGGSLRLSCAASGSMFSLNTMGWYRQAPGKQRELVATITRGGGTNYADSVKGRFTISRDNAKNTVYLQMNSLRPEDTAVYYCHVDELRQSSWTTSNLWGQGTQVTVSS ?
0.00086 s⁻¹

What value of measured koff is listed for A4-059 (VHH) VHH: VQLQESGGGAVQPGGSLRLSCAASGSHFSLNTMGWYRRAPGKQRELVATVTRGGSTNYADSVKGRFTISRDNAKNTIYLQMNSLRPEDTAVYYCHVDEVRQSTWTTSNLWGQGTQVTVSS ?
0.00091 s⁻¹
